system: Danio rerio Tg(wt1b:EGFP) embryo, pronephros; experiment: glomerular separation, fold change vs DMSO control; higher = glomeruli further apart (abnormal); details: 25 µM; exposure: 24-48 hpf
Measured endpoint: glomerular separation
Reply with just the number.

>  <Compound>
CCC1(C)CC(=O)NC1=O (centres undefined) [Ethosuximide]

>  <Measured endpoint>
glomerular separation

>  <Observed result>
0.979

$$$$

[ask] Recorded glomerular separation for Nc1nnc(-c2cccc(Cl)c2Cl)c(N)n1 [Lamotrigine] with Danio rerio Tg(wt1b:EGFP) embryo, pronephros, please?
[reply] 0.99

[ask] Recorded glomerular separation for CC(=O)O[C@H]1C(=O)[C@@]2(C)[C@H]([C@H](OC(=O)c3ccccc3)[C@]3(O)C[C@H](OC(=O)[C@H](O)[C@@H](NC(=O)c4ccccc4)c4ccccc4)C(C)=C1C3(C)C)[C@]1(OC(C)=O)CO[C@@H]1C[C@@H]2O [Paclitaxel] with Danio rerio Tg(wt1b:EGFP) embryo, pronephros, please?
[reply] 1.59

[ask] Recorded glomerular separation for Nc1cc(N2CCCCC2)nc(N)[n+]1[O-] [Minoxidil] with Danio rerio Tg(wt1b:EGFP) embryo, pronephros, please?
[reply] 0.953
